- Test system: Potassium voltage-gated channel subfamily H member 2, brain isoform KCNH2 3.1 (human)
- METHOD NOTES: qHTS for Inhibitors of KCHN2 3.1: Mutant qHTS; note: % is set by controls: 0 for no effect and ±100 for the full control effect
- CONDITION DESCRIPTION: U2OS KCNH2 3.1, thallium flux FluxOr; stronger effect = lower value
Out of some 340,000 compounds screened, about 3,300 (0.97%) were called active. Only a selection was taken, and actives are over-represented in it overall.
# activity change annotations
Lab book: enter the figure in %, no units written.

Look over these answered cases.
{"MOLECULE": "O=C(C[C@H]1C[C@@H]2c3cc(NC(=O)C4CCC4)ccc3O[C@@H]2[C@H](CO)O1)NC1CCCCC1", "READOUT KIND": "activity change", "UNIT LABEL": "%", "OBSERVED VALUE": -25.5}
{"MOLECULE": "CC1(C)Cc2c(C#N)c(SCc3nc4ccccc4[nH]3)nc(N3CCOCC3)c2CO1", "READOUT KIND": "activity change", "UNIT LABEL": "%", "OBSERVED VALUE": 1.1}
{"MOLECULE": "Cn1c(SCC(=O)Nc2cccc(NC(=O)c3cccs3)c2)nnc1-c1ccncc1", "READOUT KIND": "activity change", "UNIT LABEL": "%", "OBSERVED VALUE": -4.66}
{"MOLECULE": "COc1ccc(CSc2nc(N3CCOCC3)c3c(c2C#N)CC(C)(C)OC3)cc1", "READOUT KIND": "activity change", "UNIT LABEL": "%", "OBSERVED VALUE": -85.2}

Task: Fill in the blank: the reported activity change of `COCCNC(=O)c1ccc(N2CCC3(CC2)OCCO3)c([N+](=O)[O-])c1` is ____.
Result: 1.85

Task: Then what about the molecule `Nc1cccc(OCCCCCOc2cccc(N)c2)c1` ?
Result: -1.75

Task: Then what about the molecule `O=C1OCCC1=COCCCCOC=C1CCOC1=O` ?
Result: 5.66

Task: Then what about the molecule `CCCCCC(=O)N1C[C@H](O)[C@@H](n2cc(COC(=O)c3ccccc3)nn2)C[C@@H]1c1ccc(C)cc1` ?
Result: -34.6

Task: Then what about the molecule CCOC(=O)CSc1nc(N2CCOCC2)c2c(c1C#N)CC(C(C)C)OC2 (centres undefined) ?
Result: 9.26

Task: Then what about the molecule `C[C@@H]1CN([C@@H](C)CO)C(=O)c2cc(Br)cnc2O[C@H]1CN(C)Cc1ccc(-c2ccccc2)cc1` ?
Result: -85.7

Task: Then what about the molecule CC(C)C1CCN(C(=O)C2CCC(=O)N(C3CCCCCC3)C2)CC1 (centres undefined) ?
Result: -5.43

Task: Then what about the molecule `CSC1=NN(c2ccccc2)CN(c2ccccc2)N1C` ?
Result: -1.49

Task: Then what about the molecule CCC(C)NC(=O)c1ccc(N2CCC3(CC2)OCCO3)c([N+](=O)[O-])c1 (centres undefined) ?
Result: 15.4

Task: Then what about the molecule `CCCCN(CCCC)C(=O)CCS(=O)(=O)c1ccc2c(c1)n(C)c(=O)c(=O)n2C` ?
Result: -1.58

###

- Tested on: Potassium voltage-gated channel subfamily H member 2, brain isoform KCNH2 3.1 (human)
- METHOD NOTES: qHTS for Inhibitors of KCHN2 3.1: Mutant qHTS; note: % is set by controls: 0 for no effect and ±100 for the full control effect
- CONDITION DESCRIPTION: U2OS KCNH2 3.1, thallium flux FluxOr; stronger effect = lower value
About 3,300 (0.97%) of roughly 340,000 compounds were called active. Shown is part of a subset that was picked to be rich in actives.
READOUT KIND: activity change (%)
Lab book: enter the figure in %, no units written.

Look over these answered cases.
{"COMPOUND": "Cc1cc(/C=C2/SC(=O)N(CC(=O)OC(C)C)C2=O)c(C)n1C", "UNIT LABEL": "%", "activity change": -7.88}
{"COMPOUND": "COc1cc(CN2CCC(n3nccc3NC(=O)CCCc3ccccc3)CC2)ccc1O", "UNIT LABEL": "%", "activity change": -32.8}
{"COMPOUND": "CCC(C)(C)n1nnnc1C(c1ccccc1OC)N1CCSCC1 (configuration not stated)", "UNIT LABEL": "%", "activity change": -86.1}
{"COMPOUND": "O=C(CN1CCCCC1)Nc1ccccc1C(=O)NC1CC1", "UNIT LABEL": "%", "activity change": -2.8}
{"COMPOUND": "O=C1c2ccccc2C(=O)c2c1cccc2N1CCN(Cc2ccccc2)CC1", "UNIT LABEL": "%", "activity change": -89.4}

Task: Fill in the blank: the reported activity change of `CCc1noc(C)c1C(=O)OCC(=O)c1ccc(NC(=O)CC(C)C)cc1` is ____.
Result: 7.88

Task: Then what about the compound CCN(CC)C(=O)C1=C(C)N(Cc2ccc(OC)cc2)C(=O)C(CC(=O)NCCCCc2ccccc2)C1 (configuration not stated) ?
Result: -3.76

Task: Then what about the compound `O=S1(=O)CCN(C2CCCCCCCCCCC2)CC1` ?
Result: -0.635

Task: Then what about the compound `Cc1ccc(CN2CCC(n3nccc3NC(=O)CCCc3ccccc3)CC2)o1` ?
Result: 3.89

Task: Then what about the compound `c1ccc(CNCc2ccc(CNCc3ccccc3)cc2)cc1` ?
Result: 1.02

Task: Then what about the compound CC1CN(C(=O)CCC(=O)NCc2cccnc2)c2ccccc2O1 (configuration not stated) ?
Result: 27.3

Task: Then what about the compound `O=C(O)C1=C(C(=O)O)C2CCC1C2` ?
Result: 1.57

###

- Test system: Potassium voltage-gated channel subfamily H member 2, brain isoform KCNH2 3.1 (human)
- METHOD NOTES: qHTS for Inhibitors of KCHN2 3.1: Mutant qHTS; note: % is set by controls: 0 for no effect and ±100 for the full control effect
- CONDITION DESCRIPTION: U2OS KCNH2 3.1, thallium flux FluxOr; stronger effect = lower value
The whole screen tested about 340,000 compounds, of which about 3,300 (0.97%) were called active. For the sample, actives were picked, then their nearest neighbours and some compounds at random.
READOUT KIND: activity change (%)
Lab book: enter the figure in %, no units written.

{"MOLECULE": "O=C(N/N=C/c1ccc2c(c1)OCO2)C(=O)N1CCCC1", "OBSERVED VALUE": -5.78}
{"MOLECULE": "O=[N+]([O-])c1ccc(N2CCN(CC(O)COc3ccccc3)CC2)cc1 (stereo not drawn)", "OBSERVED VALUE": -90.3}

Task: Fill in the blank: the reported activity change of `CCOCCc1nn2c(=O)cc(CSCC(=O)Nc3cccc(C)c3C)nc2s1` is ____.
Result: 4.66

###

- Test system: Potassium voltage-gated channel subfamily H member 2, brain isoform KCNH2 3.1 (human)
- METHOD NOTES: qHTS for Inhibitors of KCHN2 3.1: Mutant qHTS; note: % is set by controls: 0 for no effect and ±100 for the full control effect
- CONDITION DESCRIPTION: U2OS KCNH2 3.1, thallium flux FluxOr
About 3,300 (0.97%) of roughly 340,000 compounds were called active.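 The calls were made as follows: active = maximum activity change below -70%; inconclusive = maximum activity change from -70% to -50%; inactive = maximum activity change above -50%.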 This is one part of a sample in which actives are shown more often than they occur.
Please state which outcome applies, choosing from active, inactive

# count of solved cases: 2
{"MOLECULE": "COc1ccccc1C(c1nnnn1C(C)(C)C)N1CCN(Cc2ccccc2)CC1 (stereo not given)", "TARGET UNDER TEST": "Potassium voltage-gated channel subfamily H member 2, brain isoform KCNH2 3.1 (human)", "CLASS NAME": "inactive"}
{"MOLECULE": "COc1ccc(S(=O)(=O)N2CCC(C(=O)NCCC(=O)Nc3ccccc3OC)CC2)cc1", "TARGET UNDER TEST": "Potassium voltage-gated channel subfamily H member 2, brain isoform KCNH2 3.1 (human)", "CLASS NAME": "inactive"}

Task: # outcome recorded in this test, key = `CCCCCCn1c(=O)n2n(c1=O)C[C@]1(OC(=O)NCc3ccc(OC)c(OC)c3)CN(S(=O)(=O)c3ccc(C)cc3)C[C@]1(O)C2`
Result: inactive

Task: Then what about the molecule CCOC(=O)c1[nH]ncc1CN1CCCC(C(=O)c2ccc(OC)cc2C)C1 (stereo not given) ?
Result: inactive

Task: Then what about the molecule COc1ccc(C(=O)C2CCCN(Cc3cccn3-c3ccccn3)C2)c(C)c1 (stereo not given) ?
Result: active

Task: Then what about the molecule Cc1cc(C)c2c(=O)n3c(nc2c1)C(CC(C)C)NC(=O)c1cc2ccccc2cc1-3 (stereo not given) ?
Result: inactive

Task: Then what about the molecule CC1CN(C(=O)CCC(=O)NCCCN2CCC(Cc3ccccc3)CC2)c2cc(Cl)ccc2O1 (stereo not given) ?
Result: active

###

- System: Potassium voltage-gated channel subfamily H member 2, brain isoform KCNH2 3.1 (human)
- METHOD NOTES: qHTS for Inhibitors of KCHN2 3.1: Mutant qHTS; note: % is set by controls: 0 for no effect and ±100 for the full control effect
- CONDITION DESCRIPTION: U2OS KCNH2 3.1, thallium flux FluxOr; stronger effect = lower value
Screen size: about 340,000 compounds; about 3,300 (0.97%) were called active. The sample as a whole holds a higher share of actives than the screen did.
READOUT KIND: activity change (%)
Lab book: enter the figure in %, no units written.

Look over these answered cases.
{"COMPOUND": "O=C1c2ccccc2C(=O)c2c1cccc2N1CCN(CCO)CC1", "TARGET UNDER TEST": "Potassium voltage-gated channel subfamily H member 2, brain isoform KCNH2 3.1 (human)", "READOUT KIND": "activity change", "OBSERVED VALUE": -26.5}
{"COMPOUND": "O=C(Nc1ccc(N2CCCCC2)cc1)c1cc(S(=O)(=O)N2CCOCC2)ccc1F", "TARGET UNDER TEST": "Potassium voltage-gated channel subfamily H member 2, brain isoform KCNH2 3.1 (human)", "READOUT KIND": "activity change", "OBSERVED VALUE": -0.576}

// below: activity change requested for another compound
Task: Fill in the blank: the reported activity change of `O=C(OCc1cn([C@@H]2C[C@H](c3ccc(Cl)cc3)N(Cc3cccs3)C[C@H]2O)nn1)c1ccccc1` is ____.
Result: 6.9
